- Test system: SK-OV-3 ovarian
- ASSAY_NOTES: NCI tumour cell line growth inhibition, 48 h
Form field: TGI (one value per entry).

{"SMILES_INPUT": "O=C(OCc1ccccc1)C1(N2CN(C3(C(=O)OCc4ccccc4)CCCC3)CN(C3(C(=O)OCc4ccccc4)CCCC3)C2)CCCC1", "EXPERIMENTAL_VALUE": "> 10 µM"}

Lookup: Name the recorded TGI for "O=c1[nH]cnc2[nH]ncc12" .
Found: > 4080 µM

Lookup: Would you mind doing "CN(C)Cc1cc(O)c(O)c(CN(C)C)c1" as well?
Found: > 100 µM

Lookup: Would you mind doing "c1ccc(-c2nc(-c3ccccc3)c(-c3ccccc3)[nH]2)cc1" as well?
Found: > 100 µM

Lookup: Would you mind doing "O=C(N/N=C/c1cc(Cl)cc(Cl)c1[O-])c1ccccc1O.O=C(N/N=C/c1cc(Cl)cc(Cl)c1[O-])c1ccccc1O.[Ni+2]" as well?
Found: 3.93 µM
